- target_under_test: human mGluR5 (Homo sapiens, UniProt P41594)
- Sequence (P41594 21-1180 isoform P41594-2 limits assumed): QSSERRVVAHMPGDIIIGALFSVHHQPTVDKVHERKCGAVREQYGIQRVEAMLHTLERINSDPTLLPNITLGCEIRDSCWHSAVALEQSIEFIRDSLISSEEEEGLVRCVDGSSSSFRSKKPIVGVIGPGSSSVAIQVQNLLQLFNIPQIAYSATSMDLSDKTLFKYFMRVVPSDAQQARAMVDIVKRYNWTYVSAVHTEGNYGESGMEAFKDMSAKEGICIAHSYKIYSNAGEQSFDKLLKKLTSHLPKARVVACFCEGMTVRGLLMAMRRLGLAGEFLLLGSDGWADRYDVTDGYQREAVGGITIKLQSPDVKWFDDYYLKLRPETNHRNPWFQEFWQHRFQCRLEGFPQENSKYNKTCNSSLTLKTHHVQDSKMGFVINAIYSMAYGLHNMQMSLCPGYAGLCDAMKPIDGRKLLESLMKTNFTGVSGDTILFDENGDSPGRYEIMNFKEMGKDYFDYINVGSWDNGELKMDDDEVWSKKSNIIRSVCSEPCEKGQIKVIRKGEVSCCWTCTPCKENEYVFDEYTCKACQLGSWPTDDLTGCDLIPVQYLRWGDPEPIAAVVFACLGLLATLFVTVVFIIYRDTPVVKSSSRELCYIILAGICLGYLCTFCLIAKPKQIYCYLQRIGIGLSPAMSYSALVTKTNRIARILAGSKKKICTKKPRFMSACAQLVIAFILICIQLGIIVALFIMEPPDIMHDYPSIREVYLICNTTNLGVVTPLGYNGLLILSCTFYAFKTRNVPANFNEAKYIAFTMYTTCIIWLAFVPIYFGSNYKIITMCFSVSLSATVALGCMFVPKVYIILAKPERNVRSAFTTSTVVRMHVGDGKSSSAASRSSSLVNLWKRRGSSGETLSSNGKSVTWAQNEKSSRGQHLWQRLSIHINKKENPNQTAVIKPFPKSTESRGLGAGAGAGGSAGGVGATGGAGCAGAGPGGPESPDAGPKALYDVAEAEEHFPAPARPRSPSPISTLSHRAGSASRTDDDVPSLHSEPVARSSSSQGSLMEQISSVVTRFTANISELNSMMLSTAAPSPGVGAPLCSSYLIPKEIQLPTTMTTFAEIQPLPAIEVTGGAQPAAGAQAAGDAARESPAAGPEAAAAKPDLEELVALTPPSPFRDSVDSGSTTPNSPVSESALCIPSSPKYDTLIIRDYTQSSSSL
- experiment_description: Cell-based functional Ca2+ mobilization assay, potentiation of glutamate EC20 response (H10H cell-line)
- experimental_setup: H10H cell-line expressing recombinant human mGluR5; in presence of glutamate EC20; normalized to maximal glutamate response
experimental_readout: Emax (%)
Give bare numbers, in %.

Some entries whose results are on file:
compound	Emax (%)
O=C(c1ccc(F)cc1F)N1CCc2nc(COc3ccccc3)sc2C1 [Example B12]	69
Cc1ccc(C(=O)N2CCc3nc(COc4ccccc4)oc3C2)n1C [Example B103]	78

Now for the compound whose Emax (%) we want.
Req: Tell me the measured Emax (%) of Cc1cccc(C(=O)N2CCc3nc(COc4ccccc4)oc3C2)n1 [Example B44] , please.
Resp: 64

* * *

- target_under_test: human mGluR5 (Homo sapiens, UniProt P41594)
- experiment_description: Cell-based functional Ca2+ mobilization assay, potentiation of glutamate EC20 response (H10H cell-line)
- experimental_setup: H10H cell-line expressing recombinant human mGluR5; potentiation in presence of glutamate EC20
- Protocol: Human embryonic kidney (HEK) cells transfected with rat mGluR5 were plated in clear bottom assay plates for assay in a Functional Drug Screening System (FDSS). In the alternative assay, HEK cells transfected with human mGluR5 were plated for assay in the FDSS. […] After establishment of a fluorescence baseline for about three seconds, the compounds of the present invention were added to the cells, and the response in cells was measured. […]
experimental_readout: pEC50

For orientation, consider the following solved cases.
molecule	target_under_test	pEC50
O=C1CCC(C(=O)N2CCc3nc(COc4ccccc4)oc3C2)N1 (centres unmarked) [Example B105]	human mGluR5 (Homo sapiens, UniProt P41594)	<4.52
O=C(Cc1c[nH]cn1)N1CCc2nc(COc3ccccc3)oc2C1.O=C(O)C(F)(F)F [Example B155]	human mGluR5 (Homo sapiens, UniProt P41594)	<4.52

Parameter requested: pEC50. Apply to each item below.
1. O=C(c1ncccn1)N1CCc2nc(COc3ccccc3)oc2C1 [Example B160]
2. Cc1cccnc1C(=O)N1CCc2nc(COc3ccccc3)oc2C1 [Example B42]

Resp:
1. <4.52
2. <5

* * *

Would you kindly list pEC50 for each of these molecules?
- target_under_test: human mGluR5 (Homo sapiens)
- experiment_description: Cell-based functional Ca2+ mobilization assay, potentiation of glutamate EC20 response (H10H cell-line)
- experimental_setup: H10H cell-line expressing recombinant human mGluR5; potentiation in presence of glutamate EC20

molecule	test_result
N#Cc1cc(F)cc(OCc2nc3c(o2)CN(C(=O)c2ccc(F)cc2)CC3)c1 [Example B136]	<5

// each molecule listed below needs its pEC50
1. O=C(c1ccc(F)cc1)N1CCc2nc(COc3ccc(C(F)(F)F)cc3)oc2C1 [Example B128]
2. N#Cc1cc(Br)cc(OCc2nc3c(o2)CN(C(=O)c2ccc(F)cc2)CC3)c1 [Example B137]
3. Cc1cc(C(=O)N2CCc3nc(COc4ccccc4)oc3C2)no1 [Example B157]

Resp:
1. <4.52
2. <4.52
3. <5
